Reported binding affinity ratio (IC50 standard/IC50 test) values are given for each entry in this list.
# assay.system: HLA-B*5101 (Human)
# protocol.text: competition with 125I-labelled standard peptide for purified HLA, gel filtration
// keep it numeric: no unit symbol after the value

Prompt: What does the data say about its binding affinity ratio (IC50 standard/IC50 test)? Entry: PPPSWDQMW (modifications not checked)
Completion: 0.0001

Prompt: Data request, read-out binding affinity ratio (IC50 standard/IC50 test), for QPEKGGRKPA (modifications not checked)
Completion: 0.0001

Prompt: // binding affinity ratio (IC50 standard/IC50 test) lookup, key: LPGCSFSIFL (modifications not checked)
Completion: 0.01

Prompt: For NPSVAATLGF (modifications not checked) , what is its reported binding affinity ratio (IC50 standard/IC50 test)?
Completion: 0.0002
